target.entity: T1, SIPA1L2, Q9P2F8
T1 sequence (Q9P2F8 945-1036, limits assumed, looked up): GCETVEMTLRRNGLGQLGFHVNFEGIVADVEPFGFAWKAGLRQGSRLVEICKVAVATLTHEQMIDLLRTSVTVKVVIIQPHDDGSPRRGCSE
method: holdup assay
Design: key: below the threshold = too weak to quantify, mostly under pKd 3.1 to 4
run.parameters: plain residues with an end cap or a label only (N-terminal biotin on a linker: ado-ado)
parameter: pKd

Reference set (4 entries):
INSERT INTO assay_data (binder, parameter, observed_measurement) VALUES
  ('QKASRNESTF [POLR1D, P0DPB6]', 'pKd', 'below the threshold'),
  ('RSPVATATSC [DUSP5, Q16690]', 'pKd', 'below the threshold'),
  ('FVFESRKEIL [TBPL1, P62380]', 'pKd', 'below the threshold'),
  ('PSDSVGKDVF [EGLN1, Q9GZT9]', 'pKd', 'below the threshold');

With those in mind, consider the next binder.
Look up pKd of KKTPVSRSHL [SLC22A3, O75751] and report it.
3.53

Each recorded value in this set is attributed to paper PMC9482650.
